target: T1, SNAP tagged-CXC4 receptor labeled with terbium (Tag-lite CXCR4 cells, HEK293) (UniProt P61073 1-352, SNAP tag labeled with terbium fluorescent dye); assay: HTRF competition on Tag-lite CXCR4 HEK293 cells; competitor labelled CXCL12
T1 construct: whole, on cells; Bought frozen cells (PerkinElmer-CisBio), HEK293 transiently expressing the receptor; also called terbium labeled CXCR receptor
T1 sequence (P61073 whole entry): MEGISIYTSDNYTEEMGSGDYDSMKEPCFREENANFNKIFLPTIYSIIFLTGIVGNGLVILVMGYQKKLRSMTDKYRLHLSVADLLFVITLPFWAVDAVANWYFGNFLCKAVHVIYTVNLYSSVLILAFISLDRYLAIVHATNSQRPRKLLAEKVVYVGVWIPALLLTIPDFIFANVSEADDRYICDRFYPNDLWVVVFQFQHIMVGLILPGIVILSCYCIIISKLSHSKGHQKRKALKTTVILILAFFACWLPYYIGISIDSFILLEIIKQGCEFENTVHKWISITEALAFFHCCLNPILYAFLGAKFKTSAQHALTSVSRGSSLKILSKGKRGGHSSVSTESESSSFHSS
Square brackets hold non-standard residues; d marks the D form. Ends that are not written are not given here.
Quick reference: Percent Inhibition of CXCR4/CXCL12 Binding (400 nM peptide) of the listed items.
Please respond with the number in % and leave the unit unwritten.

For orientation, consider the following solved cases.
LERYQHSVRSSLRPYTK [SEQ ID NO: 48]    13
[dA]ERYHHS[dA]RSSLRPYTK [SEQ ID NO: 35]    -13
LRDYHHS[dA]RSSLRPYTK [SEQ ID NO: 37]    -14
LERYHQSVRSSLRPYTK [SEQ ID NO: 51]    -2
LRRYHHS[dA]RSSLDPYTK [SEQ ID NO: 69]    -5

Percent Inhibition of CXCR4/CXCL12 Binding (400 nM peptide) for LERYHHSVRSSLRGYTK [SEQ ID NO: 80] is 88

Percent Inhibition of CXCR4/CXCL12 Binding (400 nM peptide) for LERYQHS[dA]RSSLRPYTK [SEQ ID NO: 49] is 20

Percent Inhibition of CXCR4/CXCL12 Binding (400 nM peptide) for LERYHNS[dA]RSSLRPYTK [SEQ ID NO: 46] is -4

Percent Inhibition of CXCR4/CXCL12 Binding (400 nM peptide) for LERYHHSVRSSL [SEQ ID NO: 22] is 14

Percent Inhibition of CXCR4/CXCL12 Binding (400 nM peptide) for LRRYHHS[dA]DSSLRPYTK [SEQ ID NO: 68] is -10

Percent Inhibition of CXCR4/CXCL12 Binding (400 nM peptide) for LERYNHS[dA]RSSLRPYTK [SEQ ID NO: 43] is 53
